biological target: human μ-opioid receptor (Homo sapiens)
Sequence (P35372 whole entry): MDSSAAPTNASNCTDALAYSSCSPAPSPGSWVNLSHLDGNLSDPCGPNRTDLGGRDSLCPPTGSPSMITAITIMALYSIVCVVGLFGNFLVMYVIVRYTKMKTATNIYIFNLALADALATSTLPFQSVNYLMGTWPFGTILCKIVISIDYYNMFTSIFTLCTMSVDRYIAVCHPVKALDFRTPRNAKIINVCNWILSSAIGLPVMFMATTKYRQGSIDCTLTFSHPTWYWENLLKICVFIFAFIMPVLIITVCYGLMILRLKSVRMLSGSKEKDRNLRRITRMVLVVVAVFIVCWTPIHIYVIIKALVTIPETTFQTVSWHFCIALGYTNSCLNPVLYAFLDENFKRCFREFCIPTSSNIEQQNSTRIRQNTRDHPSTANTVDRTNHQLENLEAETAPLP
measured_endpoint: pIC50
Give bare numbers, as −log10 of the molar value.

Quick check: pIC50 of OC1(c2ccc(Cl)cc2)c2ccccc2C2=NCCN21 (stereo not shown) ? 6.16
